- tested target: HMG-CoA reductase (Homo sapiens)
- Sequence (P04035 426-888 limits assumed): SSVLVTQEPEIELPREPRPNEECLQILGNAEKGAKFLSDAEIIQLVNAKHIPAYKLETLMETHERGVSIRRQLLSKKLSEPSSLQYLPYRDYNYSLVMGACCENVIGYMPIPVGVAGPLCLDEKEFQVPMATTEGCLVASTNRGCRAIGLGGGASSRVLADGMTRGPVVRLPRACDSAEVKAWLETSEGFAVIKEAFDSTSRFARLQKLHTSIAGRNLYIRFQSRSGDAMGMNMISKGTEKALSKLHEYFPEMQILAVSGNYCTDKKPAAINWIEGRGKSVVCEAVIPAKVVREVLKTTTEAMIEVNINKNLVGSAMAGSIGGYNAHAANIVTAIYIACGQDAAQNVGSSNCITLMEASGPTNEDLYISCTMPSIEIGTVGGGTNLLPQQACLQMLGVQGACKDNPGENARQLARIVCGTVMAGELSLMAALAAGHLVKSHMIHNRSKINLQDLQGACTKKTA
reported property: IC50

// known answers, use as guide
CCC(C)(C)C(=O)O[C@H]1C[C@@H](C)C=C2C=C[C@H](C)[C@H](CC[C@@H](O)C[C@@H](O)CC(=O)NCCCO)[C@H]21 ... 1130 nM
CCC(C)(C)C(=O)O[C@H]1C[C@@H](C)C=C2C=C[C@H](C)[C@H](CC[C@@H](O)C[C@@H](O)CC(=O)NCCOCCO)[C@H]21 ... 171 nM
CCC(C)(C)C(=O)O[C@H]1C[C@@H](C)C=C2C=C[C@H](C)[C@H](CC[C@@H](O)C[C@@H](O)CC(=O)NCCO)[C@H]21 ... 1020 nM
CCC(C)(C)C(=O)O[C@H]1C[C@@H](C)C=C2C=C[C@H](C)[C@H](CC[C@@H](O)C[C@@H](O)CC(=O)NCc3ccccn3)[C@H]21 ... > 30000 nM

Exercise: // query IC50 value for entry CCC(C)(C)C(=O)O[C@H]1C[C@@H](C)C=C2C=C[C@H](C)[C@H](CC[C@@H](O)C[C@@H](O)CC(=O)O)[C@H]21 [Compound 4, simvastatin acid, reference compound]
Solution: 263 nM

Exercise: Follow-up item: C=CCNC(=O)C[C@H](O)C[C@H](O)CC[C@@H]1[C@@H]2C(=C[C@H](C)C[C@@H]2OC(=O)C(C)(C)CC)C=C[C@@H]1C
Solution: 26600 nM

Exercise: Follow-up item: CCC(C)(C)C(=O)O[C@H]1C[C@@H](C)C=C2C=C[C@H](C)[C@H](CC[C@@H](O)C[C@@H](O)CC(=O)NN)[C@H]21
Solution: 950 nM

Exercise: Follow-up item: CCCNC(=O)C[C@H](O)C[C@H](O)CC[C@@H]1[C@@H]2C(=C[C@H](C)C[C@@H]2OC(=O)C(C)(C)CC)C=C[C@@H]1C
Solution: 21600 nM
